- Tested on: P388 leukemia ip, CD2F1 mice, survival T/C
- procedure_details: NCI In Vivo Anticancer Drug Screen. Data for tumor model P388 Leukemia (intraperitoneal) in CD2F1 (CDF1) mice
- test_parameters: endpoint: median survival time; dose: 6.25 mg/kg/injection; schedule: Q01DX009 (ip); vehicle: saline with Tween-80
Toxic doses and inconclusive results are not listed. The calls were made as follows: active = survival T/C of 150% or more; inactive = T/C below 125% in these data.
Outcomes: 1 (yes) for active, 0 (no) for inactive

# compound, discrete_label
records = [
    ("CCCCCCCCCCCCCCCCCC(=O)Nc1ccn(C2OC(CO)C(O)C2O)c(=O)n1 (centres undefined)", "1 (yes)"),
    ("CCOC(=O)c1[nH]c(=S)n(-c2ccccc2)c1C(=O)OCC", "0 (no)"),
    ("Oc1c(Cl)cc(Cl)cc1C1Nc2ccccc2-n2cccc21 (centres undefined)", "0 (no)"),
    ("CN(C)C(=S)SCNC(=S)NCSC(=S)N(C)C", "0 (no)"),
    ("COc1ccccc1N1CCN(CCc2c[nH]c3cc4c(cc23)OCO4)CC1", "0 (no)"),
    ("CC1CCCC(NC(=O)N(CCCl)N=O)C1 (centres undefined)", "1 (yes)"),
    ("CCN(CC)C(=S)N/N=C(\\C)c1ccccn1", "0 (no)"),
    ("O=c1c2cccc3cccc(c32)c2nc3ccccc3n12", "0 (no)"),
    ("O=c1[nH]nc(-c2ccc([N+](=O)[O-])o2)o1", "0 (no)"),
]
